experiment: Initial plasma concentration in beagle dog at 0.4 mg/kg, iv measured upto 24 hrs; assay type: ADME, organism-based, Canis lupus familiaris
MEASURE: C0 at 24 h (ng/mL)

[[record]]
smiles_record = "COc1cc([Se]C(F)(F)F)c(OC)cc1CCN.Cl"
measure = "C0 at 24 h"
unit_abbreviation = "ng/mL"
numeric_readout = 121


----------
test: AUClast in beagle dog at 2 mg/kg, po measured upto 24 hrs; assay type: ADME, organism-based, Canis lupus familiaris; settings: in vivo
MEASURE: AUC(0-t) at 24 h (ng·h/mL)

[[record]]
smiles_record = "COc1cc([Se]C(F)(F)F)c(OC)cc1CCN.Cl"
numeric_readout = 2720


----------
test: Half life in Wistar rat brain at 5 mg/kg, po measured upto 48 hrs; assay type: ADME, organism-based
MEASURE: half-life (h)

[[record]]
smiles_record = "COc1cc([Se]C(F)(F)F)c(OC)cc1CCN.Cl"
measure = "half-life"
numeric_readout = 4.71


----------
assay: AUCinf in Wistar rat plasma at 5 mg/kg, po measured upto 48 hrs; format: ADME, organism-based
MEASURE: AUC(0-inf) (ng·h/mL)

[[record]]
smiles_record = "COc1cc([Se]C(F)(F)F)c(OC)cc1CCN.Cl"
measure = "AUC(0-inf)"
numeric_readout = 49.7


----------
experiment: Tmax in Wistar rat plasma at 1 mg/kg, iv measured upto 48 hrs; format: ADME, organism-based
MEASURE: Tmax (min)

[[record]]
smiles_record = "COc1cc([Se]C(F)(F)F)c(OC)cc1CCN.Cl"
measure = "Tmax"
numeric_readout = 4.98


----------
experiment: Brain to plasma ratio in Wistar rat at 1 mg/kg, iv measured upto 48 hrs; assay type: ADME, organism-based; details: read-out: BPR
MEASURE: Kp at 48 h

[[record]]
smiles_record = "COc1cc([Se]C(F)(F)F)c(OC)cc1CCN.Cl"
measure = "Kp at 48 h"
result = 64.3


----------
Biological target: 5-hydroxytryptamine receptor 2C (Homo sapiens)
Sequence (P28335 whole entry): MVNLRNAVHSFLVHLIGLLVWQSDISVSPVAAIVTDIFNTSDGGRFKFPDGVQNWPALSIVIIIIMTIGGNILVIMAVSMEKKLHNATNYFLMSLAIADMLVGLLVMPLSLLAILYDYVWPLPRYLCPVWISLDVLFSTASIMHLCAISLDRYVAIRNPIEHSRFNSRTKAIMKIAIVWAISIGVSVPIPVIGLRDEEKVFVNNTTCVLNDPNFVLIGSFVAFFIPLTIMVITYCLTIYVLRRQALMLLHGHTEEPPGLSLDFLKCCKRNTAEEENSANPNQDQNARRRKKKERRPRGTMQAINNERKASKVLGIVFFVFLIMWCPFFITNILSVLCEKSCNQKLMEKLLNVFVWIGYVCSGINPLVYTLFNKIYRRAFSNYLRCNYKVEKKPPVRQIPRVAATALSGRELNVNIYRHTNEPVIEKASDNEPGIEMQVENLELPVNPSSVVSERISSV
Assay: Displacement of [3H]LSD from human 5-HT2C receptor expressed in HEK293 cell membrane incubated for 90 mins by microbeta liquid scintillation counting method
Type: cell membranes
pKi: −log10 of the molar value.
This listing pairs molecules with measured pKi.
MEASURE: pKi

[[record]]
molecule = "COc1cc([S+]([O-])C(F)(F)F)c(OC)cc1CCN.Cl (stereo not drawn)"
numeric_readout = 7.68

[[record]]
molecule = "COc1cc(SSC(F)(F)F)c(OC)cc1CCN.Cl"
numeric_readout = 7.17

[[record]]
molecule = "COc1cc(S(=O)(=O)C(F)(F)F)c(OC)cc1CCN.Cl"
numeric_readout = 7.89

[[record]]
molecule = "COc1cc(S(=O)(=O)C(F)F)c(OC)cc1CCN.Cl"
numeric_readout = 7.08

[[record]]
molecule = "COc1cc(SC(F)F)c(OC)cc1CCN.Cl"
numeric_readout = 7.80

[[record]]
molecule = "COc1cc(SCCCF)c(OC)cc1CCN"
numeric_readout = 8.16

[[record]]
molecule = "COc1cc([S+]([O-])C(F)F)c(OC)cc1CCN.Cl (stereo not drawn)"
numeric_readout = 7.09

[[record]]
molecule = "COc1cc(SCCC(F)(F)F)c(OC)cc1CCN.Cl"
numeric_readout = 7.96

[[record]]
molecule = "COc1cc(SCC(F)(F)C(F)F)c(OC)cc1CCN.Cl"
numeric_readout = 7.96

[[record]]
molecule = "COc1cc(SSC(C)(C)C)c(OC)cc1CCN.Cl"
numeric_readout = 7.59

[[record]]
molecule = "COc1cc([Se]C(F)(F)F)c(OC)cc1CCN.Cl"
numeric_readout = 7.02

[[record]]
molecule = "COc1cc(S(=O)(=O)CF)c(OC)cc1CCN.Cl"
numeric_readout = 7.59

[[record]]
molecule = "COc1cc(SCCC(F)F)c(OC)cc1CCN.Cl"
numeric_readout = 8.05


----------
test: AUClast in Wistar rat brain at 5 mg/kg, po measured upto 48 hrs; assay type: ADME, organism-based
MEASURE: AUC(0-t) at 48 h (ng·h/mL)

[[record]]
smiles_record = "COc1cc([Se]C(F)(F)F)c(OC)cc1CCN.Cl"
measure = "AUC(0-t) at 48 h"
numeric_readout = 1860


----------
experiment: Cmax in beagle dog at 2 mg/kg, po measured upto 24 hrs; type: ADME, organism-based, Canis lupus familiaris; conditions: in vivo
MEASURE: Cmax (ng/mL)

[[record]]
smiles_record = "COc1cc([Se]C(F)(F)F)c(OC)cc1CCN.Cl"
measure = "Cmax"
numeric_readout = 263


----------
experiment: Tmax in male Sprague-Dawley rat plasma at 1 mg/kg, iv measured upto 8 hrs by LC-MS/MS analysis; type: ADME, organism-based
MEASURE: Tmax (min)

[[record]]
smiles_record = "COc1cc([Se]C(F)(F)F)c(OC)cc1CCN.Cl"
numeric_readout = 4.98


----------
molecular target: Alpha-2A adrenergic receptor (Homo sapiens, UniProt P08913); test: Agonist activity at human recombinant adrenergic alpha-2A receptor expressed in CHO-K1 cells co-transfected with 22F-Glosensor assessed as inhibition of cAMP production measured after 30 mins incubation by Microbeta2Micro-plate counter analysis
Sequence (P08913 whole entry): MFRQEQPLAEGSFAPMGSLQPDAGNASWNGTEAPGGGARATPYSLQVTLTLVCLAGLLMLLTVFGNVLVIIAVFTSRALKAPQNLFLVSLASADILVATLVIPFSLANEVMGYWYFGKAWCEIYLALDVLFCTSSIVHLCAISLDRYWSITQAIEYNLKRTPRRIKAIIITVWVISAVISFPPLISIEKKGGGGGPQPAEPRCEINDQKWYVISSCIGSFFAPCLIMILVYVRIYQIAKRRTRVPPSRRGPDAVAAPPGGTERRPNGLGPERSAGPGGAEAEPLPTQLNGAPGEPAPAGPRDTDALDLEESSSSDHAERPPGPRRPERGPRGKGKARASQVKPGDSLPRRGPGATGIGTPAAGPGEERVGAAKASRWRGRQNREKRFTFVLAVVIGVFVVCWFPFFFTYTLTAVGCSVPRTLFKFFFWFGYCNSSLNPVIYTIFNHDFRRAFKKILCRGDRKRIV
MEASURE: EC50 (nM)

[[record]]
smiles_record = "COc1cc([Se]C(F)(F)F)c(OC)cc1CCN.Cl"
numeric_readout = 126


----------
test: AUClast in Wistar rat brain at 1 mg/kg, iv measured upto 48 hrs; assay type: ADME, organism-based
MEASURE: AUC(0-t) at 48 h (ng·h/mL)

[[record]]
smiles_record = "COc1cc([Se]C(F)(F)F)c(OC)cc1CCN.Cl"
measure = "AUC(0-t) at 48 h"
numeric_readout = 2910


----------
molecular target: 5-hydroxytryptamine receptor 2A (Homo sapiens, UniProt P28223); experiment: Binding affinity to human [125I]LSD-labeled 5-HT2A receptor expressed in HEK293 cell membrane incubated for 60 mins; type: cell membranes
Sequence (P28223 whole entry): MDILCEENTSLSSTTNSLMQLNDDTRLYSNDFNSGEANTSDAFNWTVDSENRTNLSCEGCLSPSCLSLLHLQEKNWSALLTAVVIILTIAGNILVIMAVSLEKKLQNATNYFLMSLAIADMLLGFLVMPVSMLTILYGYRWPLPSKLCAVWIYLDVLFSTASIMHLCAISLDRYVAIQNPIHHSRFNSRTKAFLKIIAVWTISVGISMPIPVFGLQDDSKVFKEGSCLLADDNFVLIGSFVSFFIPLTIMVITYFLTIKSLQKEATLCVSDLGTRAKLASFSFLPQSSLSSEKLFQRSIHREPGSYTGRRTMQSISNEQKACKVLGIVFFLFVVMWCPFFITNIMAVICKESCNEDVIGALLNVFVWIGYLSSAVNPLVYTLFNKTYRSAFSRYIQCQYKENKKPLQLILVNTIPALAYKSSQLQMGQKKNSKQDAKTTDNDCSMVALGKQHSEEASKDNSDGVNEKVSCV
pKi: −log10 of the molar value.
MEASURE: pKi

[[record]]
smiles_record = "COc1cc([Se]C(F)(F)F)c(OC)cc1CCN.Cl"
numeric_readout = 8.39


----------
assay: Half life in Wistar rat plasma at 1 mg/kg, iv measured upto 48 hrs; format: ADME, organism-based
MEASURE: half-life (min)

[[record]]
smiles_record = "COc1cc([Se]C(F)(F)F)c(OC)cc1CCN.Cl"
measure = "half-life"
numeric_readout = 46.8


----------
test: Clearance in Wistar rat plasma at 1 mg/kg, iv measured upto 48 hrs; format: ADME, organism-based
MEASURE: clearance (L/h/kg)

[[record]]
smiles_record = "COc1cc([Se]C(F)(F)F)c(OC)cc1CCN.Cl"
numeric_readout = 19.7


----------
target: Alpha-2C adrenergic receptor (Homo sapiens)
Sequence (P18825 whole entry): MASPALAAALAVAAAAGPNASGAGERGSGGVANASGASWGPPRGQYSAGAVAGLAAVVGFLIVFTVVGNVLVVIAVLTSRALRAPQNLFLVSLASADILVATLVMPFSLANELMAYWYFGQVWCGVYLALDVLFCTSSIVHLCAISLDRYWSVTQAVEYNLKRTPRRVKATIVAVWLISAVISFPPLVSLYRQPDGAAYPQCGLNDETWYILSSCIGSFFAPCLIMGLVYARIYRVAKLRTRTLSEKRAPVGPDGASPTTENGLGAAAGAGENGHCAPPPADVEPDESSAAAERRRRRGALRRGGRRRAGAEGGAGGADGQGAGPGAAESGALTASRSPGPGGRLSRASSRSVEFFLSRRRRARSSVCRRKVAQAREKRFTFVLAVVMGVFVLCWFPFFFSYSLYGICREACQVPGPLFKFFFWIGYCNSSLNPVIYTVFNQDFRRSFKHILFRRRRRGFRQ
MEASURE: Ki

[[record]]
smiles_record = "COc1cc([Se]C(F)(F)F)c(OC)cc1CCN.Cl"
measure = "Ki"
result = "108 nM"


----------
test: Absolute oral bioavailability in Wistar rat plasma at 5 mg/kg, […] measured upto 48 hrs; format: ADME, organism-based
MEASURE: bioavailability (%)

[[record]]
smiles_record = "COc1cc([Se]C(F)(F)F)c(OC)cc1CCN.Cl"
numeric_readout = 19.1


----------
experiment: Half life in Wistar rat plasma at 5 mg/kg, po measured upto 48 hrs; type: ADME, organism-based
MEASURE: half-life (min)

[[record]]
smiles_record = "COc1cc([Se]C(F)(F)F)c(OC)cc1CCN.Cl"
measure = "half-life"
numeric_readout = 212


----------
biological target: 5-hydroxytryptamine receptor 7 (Homo sapiens, UniProt P34969)
Sequence (P34969 whole entry): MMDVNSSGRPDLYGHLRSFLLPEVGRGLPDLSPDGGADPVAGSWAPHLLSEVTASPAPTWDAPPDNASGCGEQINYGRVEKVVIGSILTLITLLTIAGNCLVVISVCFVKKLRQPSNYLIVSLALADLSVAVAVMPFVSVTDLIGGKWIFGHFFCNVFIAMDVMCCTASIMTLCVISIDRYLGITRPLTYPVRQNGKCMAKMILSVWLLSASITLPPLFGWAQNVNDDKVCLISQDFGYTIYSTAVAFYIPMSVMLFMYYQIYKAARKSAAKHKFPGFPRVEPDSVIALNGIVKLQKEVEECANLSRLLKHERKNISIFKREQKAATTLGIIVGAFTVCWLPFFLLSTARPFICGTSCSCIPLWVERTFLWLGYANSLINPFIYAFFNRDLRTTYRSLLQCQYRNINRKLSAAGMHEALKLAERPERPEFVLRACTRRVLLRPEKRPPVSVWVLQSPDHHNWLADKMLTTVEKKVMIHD
pKi: −log10 of the molar value.
MEASURE: pKi

[[record]]
smiles_record = "COc1cc([Se]C(F)(F)F)c(OC)cc1CCN.Cl"
numeric_readout = 5.31


----------
target: 5-hydroxytryptamine receptor 1A (Homo sapiens, UniProt P08908)
Sequence (P08908 whole entry): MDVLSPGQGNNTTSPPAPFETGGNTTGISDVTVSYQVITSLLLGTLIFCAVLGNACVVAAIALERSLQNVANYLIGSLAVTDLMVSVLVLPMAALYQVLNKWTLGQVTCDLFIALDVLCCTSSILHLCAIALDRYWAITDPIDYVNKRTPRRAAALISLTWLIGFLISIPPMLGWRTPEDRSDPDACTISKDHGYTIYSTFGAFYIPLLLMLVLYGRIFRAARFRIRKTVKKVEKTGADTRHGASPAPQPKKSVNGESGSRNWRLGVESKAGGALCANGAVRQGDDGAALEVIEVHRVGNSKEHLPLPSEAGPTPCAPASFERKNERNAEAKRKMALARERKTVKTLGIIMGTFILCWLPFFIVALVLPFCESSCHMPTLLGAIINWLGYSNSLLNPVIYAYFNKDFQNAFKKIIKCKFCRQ
pKi: −log10 of the molar value.
MEASURE: pKi

[[record]]
smiles_record = "COc1cc([Se]C(F)(F)F)c(OC)cc1CCN.Cl"
target_or_system = "5-hydroxytryptamine receptor 1A (Homo sapiens, UniProt P08908)"
numeric_readout = 7.49

